# assay-system: Platelet-derived growth factor receptor (Mus musculus, UniProt P05622+P26618)
# protocol-notes: Inhibition of endogenous PDGFR in Swiss3T3 fibroblasts
pIC50: −log10 of the molar value.
property: pIC50

Reference set (4 entries):
[[record]]
smiles = "O=C(c1cc2cc(O)ccc2[nH]1)c1cc2c(Br)cccc2[nH]1"
number = 5.21

[[record]]
smiles = "Cc1ccc2cc(C(=O)c3cc4cc(O)ccc4[nH]3)[nH]c2c1"
number = 6.24

[[record]]
smiles = "Cc1cccc2[nH]c(C(=O)c3cc4cc(O)ccc4[nH]3)cc12"
number = 6.02

[[record]]
smiles = "COc1ccc2[nH]c(C(=O)c3cc4cc(F)ccc4[nH]3)cc2c1"
number = 6.40


1 = CCc1cccc2cc(C(=O)c3cc4cc(O)ccc4[nH]3)[nH]c12
2 = Cc1cccc2[nH]c(C(=O)c3cc4cc(OCCN5CCCCC5)ccc4[nH]3)cc12
Higher pIC50 between 1 and 2 ? Answer format: the label of the selected item.
1
(1: 5.36, 2: 5.00)

P = O=C(c1cc2cc(O)ccc2[nH]1)c1cc2c(Cl)cccc2[nH]1
Q = O=C(c1cc2cc(O)ccc2[nH]1)c1cc2cc(O)ccc2[nH]1
R = COc1ccc2[nH]c(C(=O)c3cc4cc(Cl)ccc4[nH]3)cc2c1
Arrange by pIC50, high to low. List the labels, following the order given in the request.
Q, P, R
(Q: 6.52, P: 6.30, R: 5.60)
